Cited source for all entries: PubChem BioAssay (NCI)

system: HOP-62 NSCLC; assay: NCI tumour cell line growth inhibition, 48 h
Readout Type: TGI

Examples with their reported TGI follow.
compound="CN(C)CC1CC/C(=C\\c2ccc3c(c2)OCO3)C1=O (stereo not drawn)" obs_value="> 70.1 µM"
compound=CCOC(=O)Nc1ccc(S(=O)(=O)Nn2cnnc2)cc1 obs_value="> 100 µM"

The record that follows has no TGI shown yet.
input: Look at this compound and give its reported TGI. Cc1c(C#N)cccc1[C@@H](C)Nc1nnc(C)c2cnc(N3CCOCC3)cc12
output: > 100 µM

---

test system: DMS 273 small cell lung; assay: NCI tumour cell line growth inhibition, 48 h
Readout Type: TGI

compound=C/C(CN1C(=O)c2ccccc2C1=O)=N\NS(=O)(=O)c1cccc(C(=O)O)c1 readout_type=TGI obs_value="> 100 µM"

input: State the recorded TGI for this entry: CCOC(=O)c1cc(-c2ccc(-c3cc(C(=O)OCC)c(C#N)c(N)c3C#N)cc2)c(C#N)c(N)c1C#N
output: > 100 µM

input: Requested read-out: TGI. Entry: Cc1ccc(NC(=O)C(=O)CC(=O)c2c(C)n([O-])c3ccccc3[n+]2=O)cc1C
output: > 100 µM

input: Fill in: TGI of Cc1cccc(C(=O)O)c1C(=O)c1cccc2ccccc12 is ___
output: > 100 µM

input: Could you tell me which TGI is on file for CCN(CC)CC1CCCCN1CC(=O)N1CC(C)C(=O)Nc2ccccc21 (centres undefined) ?
output: > 100 µM

input: Can you share its TGI? I mean this compound: COCCOc1cc(C)cc(/C=C(C)/C=C/C2=C(C)CCCC2(C)C)n1
output: > 100 µM

---

Listed here are molecules together with their documented TGI.
system: HCT-15 colon; test: NCI tumour cell line growth inhibition, 48 h

molecule=O=[N+]([O-])/C(C(Cl)=C(Cl)Cl)=C(/Nc1cccc2cccnc12)n1nnc2ccccc21 readout_type=TGI obs_value="28.1 µM"
molecule=CCOC(=O)C1=C(O)c2ccc(C)cc2C(=O)C1=O readout_type=TGI obs_value="> 100 µM"
molecule=COC(=O)Nc1nc2ccc(NC(=O)c3ccc(I)cc3)cc2[nH]1 readout_type=TGI obs_value="> 100 µM"

input: Please report the recorded TGI for COc1ccc(C2=Nc3ccccc3SC(C)C2)cc1OC (stereo unspecified) .
output: 31.9 µM

---

Collected TGI values appear next to each entry.
tested on: SR leukemia; assay: NCI tumour cell line growth inhibition, 48 h

Consider the reported TGI for these compounds:
compound=CC(=O)C(C)(C)CCC(C)(C)C(C)=O readout_type=TGI obs_value="> 100 µM"
compound="N#Cc1ccccc1NC(=O)C(=O)C1NC(=S)NC1=O (configuration not stated)" readout_type=TGI obs_value="> 100 µM"
compound=NC(=S)NC/C=C/Cl readout_type=TGI obs_value="> 100 µM"

input: Look up TGI: O=c1c2ccccc2nc2ccc3c(Cl)[nH][nH]c3c12
output: > 100 µM

input: # get_value(readout='TGI', item= Cn1c(=O)sc2cc(C(=S)N3CCCCC3)ccc21 )
output: > 100 µM

input: # input compound: O=C(Nc1ccccc1I(=O)=O)C1CCCCC1 ; wanted: its TGI
output: > 100 µM

input: Any idea what TGI was measured for CC1(C)O[C@@H](C[C@]2(C#N)C[C@H](CCl)OC(C)(C)O2)C[C@@H](C#N)O1 ?
output: > 100 µM

---

Some compounds, each annotated with its measured TGI.
tested on: MALME-3M melanoma; test: NCI tumour cell line growth inhibition, 48 h

Field: example entries. Status: answers known.
compound=O=C(/C=C/C=C/c1ccccc1)c1ccco1 obs_value="28.6 µM"
compound=Cc1c(C(=O)O)n(C)c(=O)n(C)c1=O obs_value="> 100 µM"
compound=CCOC(=O)Nc1ccc(S(=O)(=O)Nn2cnnc2)cc1 obs_value="> 100 µM"
compound=COC(=O)Cn1cnc2c(Cl)nc(Nc3ccccc3)nc21 obs_value="> 100 µM"
compound="N#Cc1c(N)nc2c3c1NC(=O)C(C(N)=O)C3c1ccccc1O2 (configuration not stated)" obs_value="> 100 µM"

input: What value of TGI has been reported for the following compound? Cc1c2cccc-2ccc2c3ccccc3n(C(=O)c3ccc(Cl)cc3)c12
output: > 100 µM

input: Which TGI is reported for this compound? COC(=O)Nc1nc2ccc(NC(=O)c3ccc(I)cc3)cc2[nH]1
output: > 100 µM

input: Quick check: TGI of CCCCN(C)/N=N/c1nc[nH]c1C(N)=O ?
output: > 100 µM

input: Quick one: TGI of CC(C)N(Cc1ccc(CN(C(=O)CCl)C(C)C)cc1)C(=O)CCl ?
output: 0.453 µM

input: What does the record list as TGI for O=c1[nH]c(=O)n(C2OC(CO)C(O)C2O)cc1OCCCc1ccccc1 (configuration not stated) ?
output: > 100 µM

input: So what's the measured TGI for this one? Cc1c2ccncc2c(C)c2c1[nH]c1ccc(OCCN(C)C)cc12
output: 2.96 µM

input: // query TGI value for entry CCCCCC(O)C(O)CCC[C@H](O)[C@H]1CC[C@H]([C@H]2CC[C@H]([C@H](O)CCCCCCCCCCCCC3=C[C@H](C)OC3=O)O2)O1 (some centres not stated)
output: 29.8 µM

input: Suppose we examine the compound COC1CC(O)C(OC(=O)c2ccccc2)C(C)O1 (configuration not stated) ; what TGI value has been reported?
output: > 100 µM

input: Record request: TGI value, item O=C(c1ccc(Cl)cc1)N1CCN=C1c1cc2ccccc2c2ccccc12
output: 32.5 µM

input: State the recorded TGI for this entry: CC(C)OC(=S)Nc1ccc(Cl)c(/C=N/OC(C)(C)C)c1
output: 34.2 µM

input: Entry Oc1ccc(-c2nc3ccccc3s2)cc1 : reported TGI = ?
output: > 100 µM

input: // lookup TGI for CCN(CC)C(=O)CCN1CC1
output: > 10 µM

input: Dear colleague, I am looking for the recorded TGI of the following compound: CCCc1cc(=O)n2c(C(=O)Nc3ccc(F)cc3)c(C(=O)Nc3ccc(F)cc3)sc2n1
output: 91.3 µM

---

system: SK-MEL-5 melanoma; assay: NCI tumour cell line growth inhibition, 48 h
Collected GI50 values appear next to each entry.

Below: 5 molecules and their reported GI50.
molecule="CC(=O)OC12C=C(C)C(C(C)C1)C1C(=O)N(CCN3CCCCC3)C(=O)C12 (configuration not stated)" obs_value="> 50 µM"
molecule=COc1ccc(-c2nc(-c3nc4ccc(C)cc4[nH]3)cc3c2[nH]c2ccccc23)cc1 obs_value="3.12 µM"
molecule=CN=C1C=CC(=C(c2ccc(N(C)C)cc2)c2ccc(N(C)C)cc2)C=C1 obs_value="0.182 µM"
molecule="COc1ccccc1C1C(C#N)=C(N)Oc2n[nH]c(C)c21 (configuration not stated)" obs_value="59 µM"
molecule=CN(C)CCCn1c(=O)c2ccccc2c2cnc3[nH]ccc3c21 obs_value="1.77 µM"

input: API: value(readout= GI50, system= SK-MEL-5 melanoma, query= O=C(/C=C/C=C/c1ccccc1)c1ccco1 )
output: 15.9 µM

input: Look up GI50 with SK-MEL-5 melanoma for this molecule: Cc1c(C#N)cccc1[C@@H](C)Nc1nnc(C)c2cnc(N3CCOCC3)cc12
output: 10.1 µM

---

tested on: HL-60(TB) leukemia; test: NCI tumour cell line growth inhibition, 48 h
Readout Type: GI50

molecule=COc1ccc(C(=O)c2cc(C)c(OC)c(C)c2)c(OC)c1NC(C)=O readout_type=GI50 obs_value="309 nM"
molecule=COC(=O)c1c(-c2cccs2)oc(-c2cccs2)c1C(=O)OC readout_type=GI50 obs_value="79900 nM"
molecule=C#Cc1cccc(Nc2nc(Cl)nc3cc(NC(=O)CCl)ccc23)c1 readout_type=GI50 obs_value="1420 nM"
molecule="O=C1CSC(c2ccccc2Cl)N1c1nnc(Cn2cnnc2)o1 (stereo not given)" readout_type=GI50 obs_value="2690 nM"
molecule="CC(=O)OC12C=C(C)C(C(C)C1)C1C(=O)N(CCN3CCCCC3)C(=O)C12 (stereo not given)" readout_type=GI50 obs_value="> 50000 nM"
molecule=CN=C1C=CC(=C(c2ccc(N(C)C)cc2)c2ccc(N(C)C)cc2)C=C1 readout_type=GI50 obs_value="217 nM"

Then there is this molecule:
input: What value of GI50 on HL-60(TB) leukemia does N#CC1=C(N)Oc2c(ccc3ccccc23)C1c1cc(=O)oc2ccc(Cl)cc12 (stereo not given) have?
output: 275 nM

---

system: SK-OV-3 ovarian; assay: NCI tumour cell line growth inhibition, 48 h
This listing pairs compounds with measured TGI.

Example entries and their recorded answers appear below.
compound=COc1ccc(-c2cncn2-c2cc(OC)c(OC)c(OC)c2)cc1 obs_value="> 86.5 µM"
compound="N#CC(C(=O)CCCC(=O)Nc1ccc(Cl)cc1Cl)c1ccccc1 (stereo not drawn)" obs_value="> 100 µM"

Alright, here's another compound for you.
input: Which TGI is reported for this compound? Cn1cc(C2=C(c3c[nH]c4ccccc34)C(=O)NC2=O)c2ccccc21
output: > 25 µM
